- Organism: Rattus norvegicus
- run-description: Open TG-GATES - Regimen: Daily Repeat
- Format: toxicity, organism-based, Sprague-Dawley
- Set-up: regimen Daily Repeat, gender Male, age 6 weeks
- condition-parameters: in vivo, po, 1000 mg/kg, […], route gavage, dose level High, time 28 day
observed-property: TERMINAL_BW (g)

• O=C(O)c1ccccc1Nc1ccccc1 = 383.3
• CC(S)C(=O)NCC(=O)O (centres undefined) = 364.7
• CCCCNC(=O)NS(=O)(=O)c1ccc(C)cc1 [TOLBUTAMIDE] = 411.9
• CC(=O)[C@@]1(O)CC[C@H]2[C@@H]3C=C(Cl)C4=CC(=O)CC[C@]4(C)[C@H]3CC[C@@]21C = 342.2
